observed property: melting point (°C)

# compound, u, melting point
records = [
    ("CC1CN(Cc2ccccc2)C(=O)c2cc(COc3ccccc3)nn21 (single isomer, unassigned)", "°C", 97.7),
    ("CC1CN([C@H](C)c2ccccc2)C(=O)c2cc(COc3ccccc3)nn21 (single isomer, unassigned)", "°C", 132),
    ("COc1ccc(CN2CCn3nc(COc4cccc(C)n4)cc3C2=O)cc1", "°C", 91.2),
    ("Cc1cccc(CN2CCn3nc(COc4ccccc4)cc3C2=O)c1", "°C", 95.3),
    ("Cc1cccc(CN2CCn3nc(COc4ccc(F)cc4)cc3C2=O)n1", "°C", 147.4),
    ("COc1ccc(CN2CCn3nc(COc4ccccn4)cc3C2=O)cc1", "°C", 95),
]

I = COc1cccc(CN2CCn3nc(COc4ccccc4)cc3C2=O)n1
II = COc1ccc(CN2CCn3nc(COc4cc(C)nc(C)c4)cc3C2=O)cc1
Incoming: melting point comparison. Which is larger, I or II ? Answer by quoting the chosen item's label.
Outgoing: II
